Where these numbers come from: patent US20090312349A1

Molecular target: KDR kinase (Homo sapiens, UniProt P35968, DEL940-989/E990V)
Sequence (P35968 with tags, fused parts or gaps DEL940-989/E990V): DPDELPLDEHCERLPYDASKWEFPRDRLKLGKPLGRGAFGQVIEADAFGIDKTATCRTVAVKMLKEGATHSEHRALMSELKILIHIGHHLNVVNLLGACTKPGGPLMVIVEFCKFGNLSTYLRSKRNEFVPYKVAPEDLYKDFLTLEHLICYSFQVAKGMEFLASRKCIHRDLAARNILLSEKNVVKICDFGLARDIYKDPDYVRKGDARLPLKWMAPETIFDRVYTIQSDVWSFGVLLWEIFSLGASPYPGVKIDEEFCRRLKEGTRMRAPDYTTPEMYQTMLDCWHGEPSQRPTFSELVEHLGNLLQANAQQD
Experiment: KDR kinase assay K1
Type: biochemical
Details: Method K1
Kindly supply the reported IC50 values for the records listed here.
Include the unit after the number when you answer.

Q: Given CC(C)(C)c1cc(NC(=O)Nc2ccc(-c3cccc4c3CNC4=O)cc2)n(-c2cccc(CC(N)=O)c2)n1 [Example 510] , state its recorded IC50.
Result: 0.007 µM

Q: Same thing, different compound: NC(=O)Cc1cccc(-n2nc(-c3ccccc3)cc2NC(=O)Nc2cccc(Oc3cccnc3)c2)c1 [Example 501]
Result: 1.6 µM

Q: Now try O=C(O)Cc1cccc(-n2nc(C3CCCC3)cc2NC(=O)Nc2cccc(Cl)c2Cl)c1 [Example 434] .
Result: 2.9 µM
